Value source: paper PMC8839882

Biological target: FAAH Human recombinant (Homo sapiens)
Construct: purchased Cayman Chemical
Sequence (O00519 whole entry): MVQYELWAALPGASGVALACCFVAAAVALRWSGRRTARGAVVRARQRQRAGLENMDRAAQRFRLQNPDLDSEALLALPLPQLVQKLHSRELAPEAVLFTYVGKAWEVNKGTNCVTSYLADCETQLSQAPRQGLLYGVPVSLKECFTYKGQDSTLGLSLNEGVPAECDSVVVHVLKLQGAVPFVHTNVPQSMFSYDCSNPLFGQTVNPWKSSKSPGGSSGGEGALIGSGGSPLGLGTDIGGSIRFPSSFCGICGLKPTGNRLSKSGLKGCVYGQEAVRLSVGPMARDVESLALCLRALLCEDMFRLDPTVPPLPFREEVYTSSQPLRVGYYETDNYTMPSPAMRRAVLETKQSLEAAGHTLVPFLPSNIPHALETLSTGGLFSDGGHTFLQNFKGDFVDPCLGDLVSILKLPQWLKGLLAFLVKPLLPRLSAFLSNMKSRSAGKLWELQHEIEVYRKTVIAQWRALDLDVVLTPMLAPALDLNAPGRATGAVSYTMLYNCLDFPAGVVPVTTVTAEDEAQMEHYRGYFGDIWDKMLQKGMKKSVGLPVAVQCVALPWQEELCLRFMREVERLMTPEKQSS
Experiment: FAAH inhibition assay (fluorometric, AMC-AA substrate)
Assay type: biochemical
Conditions: human recombinant enzyme, AMC-AA 5 µM substrate; mean ± SEM
VALUE_KIND: IC50 (µM)
Answers are plain numbers, in µM.

Answer for every listed entry: what is its IC50? The entries follow.
1. C[C@@](Oc1ccc(Br)cc1)(C(=O)O)c1ccccc1 [(S)-11]
2. CC(C)(Oc1ccc(-c2ccccc2)cc1)C(=O)O
3. CCC(C)(Oc1ccc(Br)cc1)C(=O)O (stereo not drawn)

Marked response:
10
7.6
8.8

###

Kindly supply the reported pEC50 values for the records listed here.
Molecular target: human PPARα (hPPARα) (Homo sapiens, UniProt Q07869)
Sequence (Q07869 239-466 limits assumed): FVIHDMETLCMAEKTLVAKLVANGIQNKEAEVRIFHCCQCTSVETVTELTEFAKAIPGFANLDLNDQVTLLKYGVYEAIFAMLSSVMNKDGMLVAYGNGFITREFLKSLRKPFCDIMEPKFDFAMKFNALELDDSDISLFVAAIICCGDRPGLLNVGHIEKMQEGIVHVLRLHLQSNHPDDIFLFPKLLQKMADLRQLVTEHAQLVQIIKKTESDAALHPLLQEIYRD
Test: GAL4-PPARα transactivation assay in transiently transfected HepG2 cells
Give bare numbers, as −log10 of the molar value.

Some solved cases for reference:
CC(Oc1ccc(Cl)cc1)(C(=O)O)c1ccccc1 (stereo not shown)    5.70
CC(Cc1ccccc1)(Oc1ccc(-c2ccccc2)cc1)C(=O)O (stereo not shown)    6.70

Answer for every listed entry: what is its pEC50? The entries follow.
1. CC(C)(Oc1ccc(-c2ccccc2)cc1)C(=O)O
2. CCC(C)(Oc1ccc(-c2ccccc2)cc1)C(=O)O (stereo not shown)

Marked response:
[5.62, 5.33]

###

Molecular target: Aβ40 (Homo sapiens)
Construct: purchased EZBiolab
Sequence (P05067 672-711): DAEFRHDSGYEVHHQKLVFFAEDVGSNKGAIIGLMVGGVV
Test: Inhibition of Aβ40 aggregation, thioflavin T (ThT) fluorescence-based method
Type: biochemical
Conditions: pH 7.4, inhibitor 100 µM, Aβ40 30 µM, 2% HFIP, PBS pH 7.4; mean ± SEM; read-out: Aβ40 Aggr. i% @100 µM (percent of inhibition)
VALUE_KIND: inhibition at 100 µM (%)
Numbers only, in %.

Some solved cases for reference:
C[C@@](Oc1ccc(Br)cc1)(C(=O)O)c1ccccc1 [(S)-11]    35
CC(Cc1ccccc1)(Oc1ccc(-c2ccccc2)cc1)C(=O)O (stereo not drawn)    17

Summary for this compound, CC(C)(Oc1ccc(-c2ccccc2)cc1)C(=O)O : inhibition at 100 µM is 29
